Target: Thymidine kinase, cytosolic (Homo sapiens) (UniProt P04183)
Sequence (P04183 whole entry): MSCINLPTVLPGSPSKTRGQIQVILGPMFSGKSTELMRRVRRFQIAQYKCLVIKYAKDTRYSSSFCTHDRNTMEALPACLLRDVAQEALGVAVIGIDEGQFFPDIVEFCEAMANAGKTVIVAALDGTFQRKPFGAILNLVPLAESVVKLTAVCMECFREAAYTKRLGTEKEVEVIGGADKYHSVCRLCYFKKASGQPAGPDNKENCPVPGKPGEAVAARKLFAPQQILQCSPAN
Experiment: Activity against human TK1 assessed as thymidine phosphorylation relative to thymidine
Format: functional
Design: concentration or dose not given beside the values
Exercise: for every item that follows, state its recorded Activity.

Memo: CC(=O)O[C@H]1C(=O)C2(C)[C@@H](OC(=O)NCCCCn3c(=O)c(C)cn([C@@H]4C[C@@H](O)[C@H](CO)O4)c3=O)C[C@H]3OC[C@@]3(OC(C)=O)[C@H]2[C@H](OC(=O)c2ccccc2)[C@]2(O)C[C@H](OC(=O)[C@H](O)[C@@H](NC(=O)c3ccccc3)c3ccccc3)C(C)=C1C2(C)C (some centres undefined) , reported Activity: 68%

CC(=O)O[C@H]1C(=O)C2(C)[C@@H](OC(=O)NCCCCCn3c(=O)c(C)cn([C@H]4C[C@H](O)[C@@H](CO)O4)c3=O)C[C@H]3OC[C@@]3(OC(C)=O)[C@H]2[C@H](OC(=O)c2ccccc2)[C@]2(O)C[C@H](OC(=O)[C@H](O)[C@@H](NC(=O)c3ccccc3)c3ccccc3)C(C)=C1C2(C)C (some centres undefined) has a reported Activity of 29%

What the record says about CC(=O)O[C@@]12CO[C@@H]1C[C@H](O)C1(C)C(=O)[C@H](OC(=O)NCCCCCCn3c(=O)c(C)cn([C@@H]4C[C@@H](O)[C@H](CO)O4)c3=O)C3=C(C)[C@@H](OC(=O)[C@H](O)[C@@H](NC(=O)c4ccccc4)c4ccccc4)C[C@@](O)([C@@H](OC(=O)c4ccccc4)[C@@H]12)C3(C)C (some centres undefined) : Activity is 45%

###

Target: Tubulin (Homo sapiens) (UniProt P68371+Q9H4B7+P0DPH7+P68366+Q13509+Q71U36+P04350+Q3ZCM7+P07437+P68363+Q9BQE3+Q6PEY2+Q13885+Q9BVA1+Q9BUF5)
Assay: Ability to promote tubulin polymerization relative to paclitaxel
Type: functional
RESULT_TYPE: Activity (%)
All answers are understood in %, so give the number only.

Given item CC(=O)O[C@H]1C(=O)C2(C)[C@@H](OC(=O)NCCOCCn3c(=O)c(C)cn([C@H]4C[C@H](O)[C@@H](CO)O4)c3=O)C[C@H]3OC[C@@]3(OC(C)=O)[C@H]2[C@H](OC(=O)c2ccccc2)[C@]2(O)C[C@H](OC(=O)[C@H](O)[C@@H](NC(=O)c3ccccc3)c3ccccc3)C(C)=C1C2(C)C (some centres undefined) , the value recorded as its Activity is 48

Short answer for CC(=O)O[C@H]1C(=O)C2(C)[C@@H](OC(=O)NCCCCCn3c(=O)c(C)cn([C@H]4C[C@H](O)[C@@H](CO)O4)c3=O)C[C@H]3OC[C@@]3(OC(C)=O)[C@H]2[C@H](OC(=O)c2ccccc2)[C@]2(O)C[C@H](OC(=O)[C@H](O)[C@@H](NC(=O)c3ccccc3)c3ccccc3)C(C)=C1C2(C)C (some centres undefined) : Activity was 78

Item: CC(=O)O[C@@]12CO[C@@H]1C[C@H](O)C1(C)C(=O)[C@H](OC(=O)NCCCCCCn3c(=O)c(C)cn([C@@H]4C[C@@H](O)[C@H](CO)O4)c3=O)C3=C(C)[C@@H](OC(=O)[C@H](O)[C@@H](NC(=O)c4ccccc4)c4ccccc4)C[C@@](O)([C@@H](OC(=O)c4ccccc4)[C@@H]12)C3(C)C (some centres undefined) | Activity: 100

Briefly, Activity measured for CC(=O)O[C@H]1C(=O)C2(C)[C@@H](OC(=O)NCCCn3c(=O)c(C)cn([C@H]4C[C@H](O)[C@@H](CO)O4)c3=O)C[C@H]3OC[C@@]3(OC(C)=O)[C@H]2[C@H](OC(=O)c2ccccc2)[C@]2(O)C[C@H](OC(=O)[C@H](O)[C@@H](NC(=O)c3ccccc3)c3ccccc3)C(C)=C1C2(C)C (some centres undefined) : 66

Source: ChEMBL document CHEMBL1146914
